Test system: SEM cells
METHOD: cell viability relative to DMSO control; higher = less cytotoxic
PROTOCOL CONDITIONS: HPLM + 10% dialyzed FBS; 48 h; 0.569 µM
QUANTITY KIND: cell viability (%)
Give bare numbers, in %.

Check out these entries, answers already filled in.
• O=C(CCCN1CCC(O)(c2ccc(Cl)cc2)CC1)c1ccc(F)cc1 = 25.8
• CC[C@H](C)C(=O)O[C@H]1C[C@@H](C)\C=C2\C=C/[C@H](C)[C@H](CC[C@@H]3C[C@@H](O)CC(=O)O3)[C@@H]12 = 56.6
• COc1cccc(N(C)C(=S)Oc2ccc3c(c2)CCCC3)n1 = 95.4

For every item below, please supply its cell viability.
1. N#Cc1c(N(CC(=O)[O-])CC(=O)[O-])sc(C(=O)[O-])c1CC(=O)[O-].O.O.O.O.O.O.O.[Sr+2].[Sr+2]
2. NC(=O)c1nnn(Cc2cc(Cl)c(C(=O)c3ccc(Cl)cc3)c(Cl)c2)c1N
3. Cc1nc2ccc(CN(C)c3ccc(C(=O)N[C@@H](CCC(=O)O)C(=O)O)s3)cc2c(=O)[nH]1
4. COC(=O)[C@H](Cc1ccccc1)NC(=O)[C@@H](N)CC(=O)O
5. CCOc1cc(N2CCC(O)CC2)ccc1Nc1ncc2c(n1)N(C)c1ccccc1C(=O)N2C
6. CC(C)C[C@H](CC(=O)O)C(=O)N[C@@H](Cc1c[nH]c2ccccc12)C(=O)N[C@@H](C)c1ccccc1
7. Cc1noc(N[S+](=O)([O-])c2ccc(N)cc2)c1C

A:
127
135
41.4
126
139
7.87
83.1

For every item below, please supply its cell viability.
1. Cn1cnc(N)c2ncnc1-2
2. CC1(C)[C@@H](O)CC[C@@]2(C)[C@H]1CC[C@]3(C)[C@@H]2C(=O)\C=C/4[C@@H]5C[C@](C)(CC[C@]5(C)CC[C@@]34C)C(O)=O

A:
1: 112; 2: 99

For every item below, please supply its cell viability.
1. COc1ccc([S+](=O)([O-])Nc2cc(-c3c(O)ccc4ccccc34)c(O)c3ccccc23)cc1
2. CN(C[C@@H]1COCCO1)[S+]([O-])(=O)NC2=CC3=C(C=C2)\C=C/C4=C(C=C(C=N4)C5=C[N](C)N=C5)C3=O
3. CCC(=O)N1CCN(CC1)C2=C(C=C(C=C2)N3C(=O)\C=C/C4=C3C5=CC(=CC=C5N=C4)C6=CN=C7C=CC=CC7=C6)C(F)(F)F

A:
[101, 69.9, 46.9]

The measured values listed here are drawn from the supplement of paper PMC11451515.
